- targetOrTestSystem: T1, human β-factor XIIa (human), P00748
- T1 chain 1: NGPLSCGQR
- T1 chain 2: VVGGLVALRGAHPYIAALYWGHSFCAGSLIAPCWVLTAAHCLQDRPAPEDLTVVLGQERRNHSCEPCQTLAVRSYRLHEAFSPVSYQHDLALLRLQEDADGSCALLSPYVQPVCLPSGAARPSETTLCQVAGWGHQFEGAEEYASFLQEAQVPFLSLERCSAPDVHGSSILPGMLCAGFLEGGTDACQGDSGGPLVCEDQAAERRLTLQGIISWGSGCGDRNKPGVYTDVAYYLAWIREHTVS
- assayMethodText: SPR (Biacore T200), biotinylated human β-FXIIa captured on chip, peptide as analyte, 1:1 model
pKd: −log10 of the molar value.
valueKind: pKd

# binder, valueKind, observedResult
rows = [
    ("DGGRCCGGYLVCRRDSDCPGACICVFKKHCGSGS (modifications not checked) [MCoFx5 acyclic]", "pKd", 7.64),
    ("DGGVCPRVGWRCRRDSDCPGACICYPTKWCGSGS (modifications not checked) [MCoFx4 cyclic]", "pKd", 7.85),
    ("DGGRCPRLLRWCRRDSDCPGACICARGGLCGSGS (modifications not checked) [MCoFx3 cyclic]", "pKd", 7.64),
]
